test system: A498; test: NCI growth inhibition (SRB) assay; assay type: cell-based; conditions: Homo sapiens, A498, Renal Cancer, single dose 10 µM, 48 h, read-out: Percent Growth Inhibition (GI)
Measured inhibition at 10 µM values are reported for all entries that follow.
Express it in %; write the number only.

CCOc1cc(OCC)cc(C(=O)Nc2cnc(Nc3ccc(N4CCOCC4)cc3)nc2Oc2ccc(OC)cc2)c1 [5d]: 17.9
COc1ccc(Oc2nc(Nc3ccc(N4CCOCC4)cc3)ncc2NC(=O)Cc2cc(OC)cc(OC)c2)cc1 [5e]: -6.85
COc1ccc(Oc2nc(Nc3ccc(N4CCOCC4)cc3)ncc2NC(=O)c2ccc3c(c2)OCO3)cc1 [5a]: 22.4
COc1ccc(Oc2nc(Nc3ccc(N4CCOCC4)cc3)ncc2NC(=O)c2ccnc([N+](=O)[O-])c2)cc1 [5f]: 6.39
COc1ccc(Oc2nc(Nc3ccc(N4CCOCC4)cc3)ncc2NC(=O)c2cc(OC)c(OC)c(OC)c2)cc1 [5c]: 38.3

QUERY: Output reported inhibition at 10 µM of the compound COc1ccc(Oc2nc(Nc3ccc(N4CCOCC4)cc3)ncc2NC(=O)c2cccc(SC)c2)cc1 [5g] on A498.
RESULT: 18.9

QUERY: Answer with inhibition at 10 µM of COc1ccc(Oc2nc(Nc3ccc(N4CCOCC4)cc3)ncc2NC(=O)c2ccc(OC)c(OC)c2)cc1 [5b] measured for A498.
RESULT: -5.56

###

MEASURE NAME: melting point

QUERY: Hello, please tell me recorded melting point for this one: COc1ccc(Oc2nc(Nc3ccc(N4CCOCC4)cc3)ncc2NC(=O)c2ccc(OC)c(OC)c2)cc1 [5b]
RESULT: 119.1 to 120.1 °C

###

molecular target: LYN (Homo sapiens); construct: purchased Reaction Biology Corp; test: In vitro kinase inhibition assay (HotSpot, Reaction Biology); format: biochemical; details: single dose of 10 µM; 10 µM ATP as printed; read-out: Percent Inhibition, LYN
Sequence (P07948 whole entry): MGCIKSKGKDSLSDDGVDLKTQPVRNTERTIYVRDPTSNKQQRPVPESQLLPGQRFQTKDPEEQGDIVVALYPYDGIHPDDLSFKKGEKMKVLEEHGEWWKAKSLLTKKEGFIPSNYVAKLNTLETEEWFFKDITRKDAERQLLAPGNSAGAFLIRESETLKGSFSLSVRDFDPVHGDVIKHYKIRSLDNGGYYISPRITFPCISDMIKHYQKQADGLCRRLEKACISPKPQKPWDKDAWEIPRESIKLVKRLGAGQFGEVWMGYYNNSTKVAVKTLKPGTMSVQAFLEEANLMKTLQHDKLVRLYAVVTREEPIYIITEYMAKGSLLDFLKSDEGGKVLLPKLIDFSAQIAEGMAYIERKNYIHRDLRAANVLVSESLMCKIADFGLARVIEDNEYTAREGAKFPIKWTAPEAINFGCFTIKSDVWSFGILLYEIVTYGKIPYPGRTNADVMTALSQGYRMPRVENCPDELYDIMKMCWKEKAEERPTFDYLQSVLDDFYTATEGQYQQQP
# label = YES if inhibition at 10 µM >= 30% else NO

Solved entries (count: 3):
COc1ccc(Oc2nc(Nc3ccc(N4CCOCC4)cc3)ncc2NC(=O)c2cc(OC)c(OC)c(OC)c2)cc1: NO
COc1ccc(Oc2nc(Nc3ccc(N4CCOCC4)cc3)ncc2NC(=O)c2ccnc([N+](=O)[O-])c2)cc1: YES
CCOc1cc(OCC)cc(C(=O)Nc2cnc(Nc3ccc(N4CCOCC4)cc3)nc2Oc2ccc(OC)cc2)c1: YES

QUERY: hey, is inhibition at 10 µM for this one >= 30%? COc1ccc(Oc2nc(Nc3ccc(N4CCOCC4)cc3)ncc2NC(=O)c2ccc(OC)c(OC)c2)cc1
RESULT: YES

QUERY: State whether the measured inhibition at 10 µM reaches 30%, counting equality as reaching it, for COc1ccc(Oc2nc(Nc3ccc(N4CCOCC4)cc3)ncc2NC(=O)c2cccc(SC)c2)cc1
RESULT: YES

QUERY: Does the reported inhibition at 10 µM for COc1ccc(Oc2nc(Nc3ccc(N4CCOCC4)cc3)ncc2NC(=O)c2ccc3c(c2)OCO3)cc1 fall at or above the 30% mark?
RESULT: YES

QUERY: Assess whether reported inhibition at 10 µM for COc1ccc(Oc2nc(Nc3ccc(N4CCOCC4)cc3)ncc2NC(=O)Cc2cc(OC)cc(OC)c2)cc1 sits at 30% or higher.
RESULT: NO
